# assay_system: T1, rat VPAC1 receptor (rat, UniProt P30083 31-459)
# T1 sequence (looked up): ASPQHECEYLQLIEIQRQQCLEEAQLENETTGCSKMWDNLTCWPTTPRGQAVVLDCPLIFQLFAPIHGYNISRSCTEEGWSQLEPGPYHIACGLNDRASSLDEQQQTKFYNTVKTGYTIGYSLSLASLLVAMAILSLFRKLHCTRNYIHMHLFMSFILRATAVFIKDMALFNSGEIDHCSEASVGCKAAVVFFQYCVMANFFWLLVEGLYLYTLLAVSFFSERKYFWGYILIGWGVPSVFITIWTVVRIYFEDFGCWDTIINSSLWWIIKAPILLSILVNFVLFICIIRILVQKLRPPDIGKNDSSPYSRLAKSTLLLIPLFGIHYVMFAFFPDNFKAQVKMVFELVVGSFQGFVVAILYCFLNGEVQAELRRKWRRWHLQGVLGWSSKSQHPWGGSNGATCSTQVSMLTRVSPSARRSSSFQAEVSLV
# run_description: cell-based or functional assay
Please provide measured Rat VPAC1 Receptor: DiscoveRx: (EC50; nM) for the entries that follow.
Write it as a number; the unit nM goes unstated.

Rat VPAC1 Receptor: DiscoveRx: (EC50; nM) for HSDAVFTEQYTXLRXQLAXXXYLQXIXXCGGPSSGAPPPC (C6-HSDAVFTEQY(OMe)TOrnLRAibQLAAbuAibOrnYLQAibIOrnOrnC(PEG20K)GGPSSGAPPPC(PEG20K)-NH2) [P580] is 1.1

Note to self: Rat VPAC1 Receptor: DiscoveRx: (EC50; nM) recorded for HSDAVFTEQYTXLRXQVAAXXYLQSIXXXGGPSSGAPPPC (C6-HSDAVFTEQY(OMe)TOrnLRAibQVAAAibOrnYLQSIOrnK(CO(CH2)2SPEG20K)OrnGGPSSGAPPPC(PEG20K)-NH2) [P499] was 804

GET /value?item= HSDAVFTEQYTXLRXQLAXXXYLQSIXCXGGPSSGAPPPC (C6-HSDAVFTEQY(OMe)TOrnLRAibQLAAbuAibOrnYLQSIOrnC(PEG20K)OrnGGPSSGAPPPC(PEG20K)-NH2) [P555] &field=Rat VPAC1 Receptor: DiscoveRx: (EC50; nM) returns 68.9

Rat VPAC1 Receptor: DiscoveRx: (EC50; nM) in this record for HSDAVFTEQYTXLRXQVAAXXYLQSIXXXGGPSSGAPPPS (not fully specified; C6-HSDAVFTEQY(OMe)TOrnLRAibQVAAAibOrnYLQSIOrnK(WPEG40K)OrnGGPSSGAPPPS-NH2) [P454] : 1230

Entry under test: HSDAVFTEQYTXLRXQLAAXXYLQSIXXCGGPSSGAPPPS (C6-HSDAVFTEQY(OMe)TOrnLRAibQLAAAibOrnYLQSIOrnOrnC(PEG40K)GGPSSGAPPPS-NH2) [P560] . Its Rat VPAC1 Receptor: DiscoveRx: (EC50; nM) was 156
